Tested on: A549 NSCLC
Test: NCI tumour cell line growth inhibition, 48 h
# reported TGI; entries follow

COMPOUND | TGI
CON(C)C(C#N)=C(C#N)C#N | > 10 µM
CC(N)C(C)Cc1ccccc1 (configuration not stated) | > 100 µM
CC1(C)CC(=O)C2=C(C1)OC1=C(C(=O)CC(C)(C)C1)C2CC(c1ccccc1)c1ccc(O)c(O)c1O (configuration not stated) | > 10 µM
CC(=O)C(=[N+]=[N-])C(=O)OC(C)(C)C#N | > 10 µM
CC(C)[C@@]12C[C@@H](OC(=O)[C@H]3CO3)[C@@](C)(O1)[C@@H]1CC[C@@H](C)[C@H]1[C@@H]2OC(=O)/C=C/c1ccccc1 | 54.6 µM
COc1cc(CCCOC(=O)/C=C/c2ccc(O)c(O)c2)cc(O)c1O | > 100 µM
COc1cc2c(c(C)c1O)[C@H]1COc3ccccc3[C@H]1O2 | 81.6 µM

----------
Tested on: NCI-H460 lung
Assay: NCI tumour cell line growth inhibition, 48 h

COMPOUND | TARGET ENTITY | TGI
Cc1cc2c(=O)n(-c3ccc(F)cc3)c(C)nc2c(C(=O)O)c1C | NCI-H460 lung | > 100 µM
COCC1CCCN1c1ccc(/C=C(/C#N)C(N)=S)cc1 (centres undefined) | NCI-H460 lung | > 100 µM
CCCCCC(O)C1C(=O)OC(C)C(O)/C=C/C=C/C=C/C=C\C=C(\C)C(O)CC(O)CC(O)CC(O)CC(O)CC(O)CC1O (centres undefined) | NCI-H460 lung | > 100 µM
ClC1=C(Cl)C(Cl)=C(Cl)C1=C/C=C/c1ccccc1 | NCI-H460 lung | 2.3 µM
CN1CN(c2ccccc2)C2(CCN(CCCSc3ccccc3NC(=O)/C=C/c3ccccc3)CC2)C1=O | NCI-H460 lung | 14.8 µM
Clc1ccc(SCCSCCCCCCCCCCSCCSc2ccc(Cl)cc2)cc1 | NCI-H460 lung | > 100 µM
COC1=CC(O)(CC(N)=O)c2ccccc2C1=O (centres undefined) | NCI-H460 lung | > 100 µM
Cc1c(CCOC=O)c(=O)[nH]c2nncn12 | NCI-H460 lung | > 100 µM
N/N=C1\C(=O)N(C2CCCCC2)C(=O)C1C(=O)NC1CCCCC1 (centres undefined) | NCI-H460 lung | > 100 µM
CCOC(=O)c1csc(NC(=O)CCN2CCCCC2)n1 | NCI-H460 lung | > 100 µM
CCN(CC)c1cc(/C=C/c2ccc(OC)c(OC)c2)nc2cc(F)c(F)cc12 | NCI-H460 lung | > 100 µM
O=C(O)C1CCCN1Cc1cc2ccccc2c2ccccc12 (centres undefined) | NCI-H460 lung | > 100 µM
Cc1cc(N(CCC#N)S(C)(=O)=O)ccc1C=O | NCI-H460 lung | > 100 µM
CC(=O)C(=[N+]=[N-])C(=O)OC(C)(C)C#N | NCI-H460 lung | > 10 µM
COc1ccc2nc3ccc(OC)cc3c(S(=O)(=O)Cc3ccc([N+](=O)[O-])cc3)c2c1 | NCI-H460 lung | > 100 µM
COc1cc(NCCCCN=C(N)NC(N)=NC(C)C)c2ncccc2c1 | NCI-H460 lung | 20 µM
CS(=O)CCCCCN=C=S (centres undefined) | NCI-H460 lung | 6.64 µM
O=C1/C(=C\c2cccc(Oc3ccccc3)c2)S(=O)(=O)C(c2ccccc2)N1c1ccc(Cl)cc1 (centres undefined) | NCI-H460 lung | > 100 µM
COC1(OC)CC2C=C(S(=O)(=O)c3ccccc3)C1N(Cc1ccccc1)C2=O (centres undefined) | NCI-H460 lung | > 100 µM

----------
System: TK-10 renal
Test: NCI tumour cell line growth inhibition, 48 h

COMPOUND | TGI
Cn1c(=O)cc(NCc2ccc(Cl)cc2)[nH]c1=O | > 100 µM
COc1ccc(C2C3C(=O)C=CC(=O)C3[C@@H]2C)cc1OC (stereo not given in full) | > 100 µM
CCOC(=O)C(=O)Nc1ccc(C)cc1C | > 100 µM
COc1ccc(/C=C2\CCCCC2=O)cc1 | > 100 µM
O=C1NC(Cc2c[nH]c3ccccc23)C(=O)N2C(C3CCCCC3)c3[nH]c4ccccc4c3C[C@@H]12 (stereo not given in full) | 37.6 µM
O=C(NNC(=S)Nc1ccccc1)c1ccccc1Nc1ccccc1C(=O)NNC(=S)Nc1ccccc1 | 68.7 µM
CSc1cnn(CCC#N)c(=O)n1 | > 100 µM
CC(OC(=O)NCn1cc(-c2ccccc2)nn1)c1ccccc1 (stereo not given) | > 100 µM
CC1C[C@H](OC(N)=O)C(C)CC1=O (stereo not given in full) | > 100 µM
CC1(C2(C)OC(=O)c3ccccc32)OC(=O)c2ccccc21 (stereo not given) | > 100 µM

----------
System: KM12 colon
Experiment: NCI tumour cell line growth inhibition, 48 h
MEASURED PARAMETER: TGI (µM)

COMPOUND | MEASURED PARAMETER | QUANTITY UNIT | BOUND OPERATOR | EXPERIMENTAL RESULT
COc1cc(/C=C/c2cc(/C=C/c3ccc(O)c(OC)c3)n(-c3c(C)cccc3C)c(=O)n2)ccc1O | TGI | µM | = | 3.63
CC1(C)CC(=O)C2=C(C1)OC1=C(C(=O)CC(C)(C)C1)C2CC(c1ccccc1)c1ccc(O)c(O)c1O (configuration not stated) | TGI | µM | > | 10
COc1ccc2nc3ccc(OC)cc3c(S(=O)(=O)Cc3ccc([N+](=O)[O-])cc3)c2c1 | TGI | µM | > | 100
CC(C)(C)c1nc2c(o1)C(=O)c1ccccc1C2=O | TGI | µM | = | 6.76
ClC1=C(Cl)C(Cl)=C(Cl)C1=C/C=C/c1ccccc1 | TGI | µM | = | 0.684
Cc1cccc(Oc2nccc(-c3c(-c4ccc(F)cc4)ncn3C3CCNCC3)n2)c1C | TGI | µM | > | 23.8
CN1CCCNc2c(c(=O)c2=O)NCCCN(C)CCCNc2c(c(=O)c2=O)NCCCN(C)CCCNc2c(c(=O)c2=O)NCCCN(C)CCCNc2c(c(=O)c2=O)NCCCN(C)CCCNc2c(c(=O)c2=O)NCCCN(C)CCCNc2c(c(=O)c2=O)NCCCN(C)CCCNc2c(c(=O)c2=O)NCCC1 | TGI | µM | = | 18

----------
System: MALME-3M melanoma
Test: NCI tumour cell line growth inhibition, 48 h

MOLECULE | TARGET ENTITY | GI50
CC(=O)N1CC(Nc2ccc(OC(F)(F)F)cc2)=CC1=O | MALME-3M melanoma | 61.5 µM
CS(=O)CCCCCN=C=S (stereo not given) | MALME-3M melanoma | 4.12 µM
CCOC(=O)c1sc2nc3sc(N=Nc4ccc(Cl)cc4)c(O)n3c(=S)c2c1C | MALME-3M melanoma | 34.9 µM
NC(=NCCCOc1ccc(Cl)cc1)Nc1ccc(Cl)cc1 | MALME-3M melanoma | 1.95 µM
CC(C)[C@@]12C[C@@H](OC(=O)[C@H]3CO3)[C@@](C)(O1)[C@@H]1CC[C@@H](C)[C@H]1[C@@H]2OC(=O)/C=C/c1ccccc1 | MALME-3M melanoma | 13.9 µM
O=C1C(Br)=CC2(C=C1Br)CCN=c1c2c(O)c2nc3ccccc3c3ccnc1c23 | MALME-3M melanoma | 1.41 µM
NC(CSC(c1ccccc1)(c1ccccc1)c1ccc(Cl)cc1)C(=O)O (stereo not given) | MALME-3M melanoma | 1.97 µM
COc1ccc(NC(=O)n2nc(N)c3ccccc32)cc1OC | MALME-3M melanoma | > 100 µM
O=C1OCC(c2cccs2)=C1Cl | MALME-3M melanoma | > 100 µM
CCCCCC(O)C1C(=O)OC(C)C(O)/C=C/C=C/C=C/C=C\C=C(\C)C(O)CC(O)CC(O)CC(O)CC(O)CC(O)CC1O (stereo not given) | MALME-3M melanoma | > 100 µM

----------
Test system: HT29 colon
Assay: NCI tumour cell line growth inhibition, 48 h
# reported TGI; entries follow
MEASURED PARAMETER: TGI

COMPOUND | EXPERIMENTAL RESULT
O=[N+]([O-])c1ccc(-c2nc(-c3ccccc3)c(-c3ccccc3)n2-c2ccccc2)cc1 | 3.37 µM
COc1ccc(/C(Cl)=C(\C=O)c2ccc([N+](=O)[O-])cc2)cc1OC | > 30.5 µM
CCCCCCCCCCCCCCCCCC1=NCCN1CS(=O)(=O)O | 19.9 µM
COC(=O)c1ccc2c(c1)nc(-c1cc3ccccc3[nH]c1=O)n2-c1cc(C(C)(C)C)[nH]n1 | > 100 µM
CC1=C2c3c(C)ccc4ccc(C)c(c34)C2(O)C(C)C1=O (stereo not drawn) | > 100 µM
Cc1nc2sccn2c(=O)c1CCN1CCC(=C(c2ccc(F)cc2)c2ccc(F)cc2)CC1 | 19 µM
O=P(O)(O)c1ccccc1 (tested in a mixture with another compound) | > 100 µM
CC(C)(C)NN=C1C(C)(C)C(=NNC(C)(C)C)C1(C)C | > 100 µM
O=C(CO)CC(=O)C(=O)Nc1nc([N+](=O)[O-])cs1 | > 100 µM
COC(=O)C1=C(C(=O)OC)C2(OC(C)=O)c3ccccc3-c3ccccc3C12 (stereo not drawn) | 10.6 µM
CSC(C1c2ccccc2N(C)C2=NC(=O)N(C)C(=O)C21Cl)S(=O)(=O)c1ccc(C)cc1 (stereo not drawn) | > 100 µM
CCOC(=O)c1csc(NC(=O)CCN2CCCCC2)n1 | > 100 µM
COc1ccc(Nn2c(SCC(=O)Nc3nc(-c4ccc(Cl)cc4)cs3)nc(C)c2C)cc1 | 50.4 µM
COc1cccc(NC(=S)Nn2c(C)nc3ccccc3c2=O)c1 | > 100 µM
CC(=O)C(=[N+]=[N-])C(=O)OC(C)(C)C#N | > 10 µM
N#Cc1c(-c2ccc(Cl)cc2)n(O)c2ccccc12 | 20.9 µM
CCOC(=O)C(=O)Nc1ccc(C)cc1C | > 100 µM
C1CCN(CCC2CCCCN2)CC1 (stereo not drawn) | > 100 µM
CSc1cnn(CCC#N)c(=O)n1 | > 100 µM
O=c1oc2ccccc2c(O)c1C(c1ccco1)c1c(O)c2ccccc2oc1=O | > 100 µM
Cc1cc2cc3cc(C)c(N(C)C)cc3nc2cc1N(C)C | 23.8 µM
CCCn1c(SCC)c2ccccc2c1-c1nc(F)nc(F)n1 | > 100 µM
Cc1[nH]c(=O)nc(N/N=C/c2ccc(Cl)cc2)c1C(=O)NC(C)(CO)CO | > 100 µM
